- measurement target: Kappa-type opioid receptor (Homo sapiens)
- assay text: kappa opioid receptor blockers – cell-based, luminescence, uHTS (AID 1778)
- cond: KOR beta-arrestin recruitment, antagonist mode; at 10 µM unless noted
Hit rate of the full screen: of about 290,000 compounds, about 260 (0.09%) were called active. Rule as the data show it: active = inhibition above about 50%; inactive = the rest. The sample as a whole holds a higher share of actives than the screen did. Entries with a potency or affinity are not part of this list.
// classify into active, inactive

1) C=CCn1c(O)c(N=NC(=S)Nc2cccc(C)c2)c2ccccc21: inactive

Exercise: Per the assay record, what outcome was assigned to CSCCNC(=O)c1ccc(OC2CCN(S(=O)(=O)N(C)C)CC2)cc1 ?
Key: inactive

Exercise: Fill in: this test's call for O=C(NC(NC(=S)Nc1cccc(Cl)c1)C(Cl)(Cl)Cl)OCc1ccccc1 (stereo not drawn) is ___
Key: inactive

Exercise: Please state the recorded outcome for this compound: Cc1cc(C(=O)Nc2nc(-c3ccccn3)cs2)ccc1[N+](=O)[O-]
Key: inactive

Exercise: So what was the verdict on NC(=S)Nc1ncc(C(F)(F)F)cc1Cl in this test?
Key: inactive
